# Procedure text: Concentration and elimination of ADP and its metabolites in liver, kidney, muscle, fat/skin after oral ^3H-ADP for 7 d
# Assay type: in vivo, carp
# Condition context: carp, muscle, oral, 5 mg/kg b.w.
Measured parameter: concentration at 14 d (ng/g)
I only need the number, in ng/g, no unit after it.

Asked: Read the entry COc1cc(Cc2cnc(N)nc2N)cc(OC)c1N(C)C [A0] and write its reported concentration at 14 d.
Given back: 60

---

# Procedure text: Concentration and elimination of ADP and its metabolites in liver, kidney, muscle, fat/skin after oral ^3H-ADP for 7 d
# Type: in vivo, broilers
# Condition context: broilers, liver, oral, 5 mg/kg b. w.
Measured parameter: concentration at 14 d (ng/g)
I only need the number, in ng/g, no unit after it.

Asked: Read the entry COc1cc(Cc2cnc(N)nc2N)cc(OC)c1N(C)C [A0] and write its reported concentration at 14 d.
Given back: 130

---

# Procedure text: Concentration and elimination of ADP and its metabolites in liver, kidney, muscle, fat/skin after oral ^3H-ADP for 7 d
# Format: in vivo, broilers
# Condition context: broilers, fat, oral, 5 mg/kg b. w.
Measured parameter: concentration at 7 d
Answer format: number, then unit.

Asked: Read the entry COc1cc(Cc2cnc(N)nc2N)cc(OC)c1N(C)C and write its reported concentration at 7 d.
Given back: 60 ng/g

---

# Procedure text: Concentration and elimination of ADP and its metabolites in liver, kidney, muscle, fat/skin after oral ^3H-ADP for 7 d
# Format: in vivo, carp
# Condition context: carp, skin, oral, 5 mg/kg b. w.
Measured parameter: concentration at 14 d (ng/g)
I only need the number, in ng/g, no unit after it.

Asked: Read the entry COc1cc(Cc2cnc(N)nc2N)cc(OC)c1N(C)C and write its reported concentration at 14 d.
Given back: 60

---

// concentration at 3 d lookup, one value per entry
# Procedure text: Concentration and elimination of ADP and its metabolites in liver, kidney, muscle, fat/skin after oral ^3H-ADP for 7 d
# Assay type: in vivo, rats
# Condition context: rat, liver, oral, 5 mg/kg b. w.
I only need the number, in ng/g, no unit after it.

Some solved cases for reference:
Structure smiles string: CNc1c(OC)cc(Cc2cnc(N)nc2N)cc1OC
Unit info: ng/g
concentration at 3 d: 180

Structure smiles string: COc1cc(Cc2cnc(N)nc2N)cc(OC)c1N
Unit info: ng/g
concentration at 3 d: 60

Then there is this molecule:
Asked: Read the entry COc1cc(Cc2cnc(N)nc2N)cc(OC)c1N(C)C and write its reported concentration at 3 d.
Given back: 1020

---

# Procedure text: Concentration and elimination of ADP and its metabolites in liver, kidney, muscle, fat/skin after oral ^3H-ADP for 7 d
# Assay type: in vivo, swine
# Condition context: pig, po; swine liver, after 5 mg/kg b. w. for 7 days; read-out: t1/2 of the individual compound (converted)
Measured parameter: half-life (h)
I only need the number, in h, no unit after it.

Structure smiles string: COc1cc(Cc2cnc(N)nc2N)cc(OC)c1N(C)C
half-life, h: 105

Asked: Read the entry COc1cc(Cc2cnc(N)nc2N)cc(OC)c1N and write its reported half-life.
Given back: 23.8

Asked: Read the entry CNc1c(OC)cc(Cc2cnc(N)nc2N)cc1OC and write its reported half-life.
Given back: 25

---

# Procedure text: Concentration and elimination of ADP and its metabolites in liver, kidney, muscle, fat/skin after oral ^3H-ADP for 7 d
# Format: in vivo, broilers
# Condition context: po; broiler muscle, after 5 mg/kg b. w. for 7 days; read-out: t1/2 of the individual compound (converted)
Measured parameter: half-life (h)
I only need the number, in h, no unit after it.

Asked: Read the entry COc1cc(Cc2cnc(N)nc2N)cc(OC)c1N(C)C and write its reported half-life.
Given back: 40.1

---

// concentration at 3 d lookup, one value per entry
# Procedure text: Concentration and elimination of ADP and its metabolites in liver, kidney, muscle, fat/skin after oral ^3H-ADP for 7 d
# Type: in vivo, swine
# Condition context: swine, liver, oral, 5 mg/kg b.w.
I only need the number, in ng/g, no unit after it.

Some solved cases for reference:
Structure smiles string: COc1cc(Cc2cnc(N)nc2N)cc(OC)c1N
Measured parameter: concentration at 3 d
Unit info: ng/g
Result: 310

Structure smiles string: COc1cc(Cc2cnc(N)nc2N)cc(OC)c1N(C)C
Measured parameter: concentration at 3 d
Unit info: ng/g
Result: 1320

Asked: Read the entry CNc1c(OC)cc(Cc2cnc(N)nc2N)cc1OC and write its reported concentration at 3 d.
Given back: 640

---

// half-life lookup, one value per entry
# Procedure text: Concentration and elimination of ADP and its metabolites in liver, kidney, muscle, fat/skin after oral ^3H-ADP for 7 d
# Type: in vivo, rats
# Condition context: po; rat liver, after 5 mg/kg b. w. for 7 days; read-out: t1/2 of the individual compound (converted)
# Description: A total of 36 animals from each species (swine n = 24) were randomly assigned to six equal treatment groups and administered a single daily dose of ^3 H-ADP at 5 mg/kg b. w. (0.1 Ci/g) through oral gavage for 7 consecutive days. […] The total radioactivity levels in each sample were determined through LSC. The samples extracted from the plasma, bile, and tissues of the liver, kidney, muscle, and fat/skin were analyzed through LC/MS-IT-TOF and v. […]
I only need the number, in h, no unit after it.

Asked: Read the entry COc1cc(Cc2cnc(N)nc2N)cc(OC)c1N(C)C and write its reported half-life.
Given back: 100

Asked: Read the entry COc1cc(Cc2cnc(N)nc2N)cc(OC)c1N and write its reported half-life.
Given back: 38.6

Asked: Read the entry CNc1c(OC)cc(Cc2cnc(N)nc2N)cc1OC and write its reported half-life.
Given back: 64.6

---

# Procedure text: Concentration and elimination of ADP and its metabolites in liver, kidney, muscle, fat/skin after oral ^3H-ADP for 7 d
# Type: in vivo, carp
# Condition context: carp, liver, oral, 5 mg/kg b. w.
Measured parameter: concentration at 14 d (ng/g)
I only need the number, in ng/g, no unit after it.

Asked: Read the entry COc1cc(Cc2cnc(N)nc2N)cc(OC)c1N(C)C and write its reported concentration at 14 d.
Given back: 260

---

# Procedure text: Concentration and elimination of ADP and its metabolites in liver, kidney, muscle, fat/skin after oral ^3H-ADP for 7 d
# Type: in vivo, swine
# Condition context: swine, kidney, oral, 5 mg/kg b.w.
// concentration at 7 d lookup, one value per entry

Structure smiles string: COc1cc(Cc2cnc(N)nc2N)cc(OC)c1N(C)C
concentration at 7 d: 360 ng/g

Then there is this molecule:
Asked: Read the entry CNc1c(OC)cc(Cc2cnc(N)nc2N)cc1OC and write its reported concentration at 7 d.
Given back: 20 ng/g

---

# Procedure text: Concentration and elimination of ADP and its metabolites in liver, kidney, muscle, fat/skin after oral ^3H-ADP for 7 d
# Assay type: in vivo, rats
# Condition context: rat, muscle, oral, 5 mg/kg b.w.
Measured parameter: concentration at 0.25 d (ng/g)
I only need the number, in ng/g, no unit after it.

Some solved cases for reference:
Compound: COc1cc(Cc2cnc(N)nc2N)cc(OC)c1N [A2, N-didesmethyl-ADP]
concentration at 0.25 d / ng/g: 40

Compound: COc1cc(Cc2cnc(N)nc2N)cc(OC)c1N(C)C [A0]
concentration at 0.25 d / ng/g: 1020

Then there is this compound:
Asked: Read the entry CNc1c(OC)cc(Cc2cnc(N)nc2N)cc1OC [A1, N-monodesmethyl-ADP] and write its reported concentration at 0.25 d.
Given back: 250

---

# Procedure text: Concentration and elimination of ADP and its metabolites in liver, kidney, muscle, fat/skin after oral ^3H-ADP for 7 d
# Assay type: in vivo, broilers
# Condition context: broiler chicken, muscle, oral, 5 mg/kg b.w.
Measured parameter: concentration at 0.25 d (ng/g)
I only need the number, in ng/g, no unit after it.

Some solved cases for reference:
Compound: COc1cc(Cc2cnc(N)nc2N)cc(OC)c1N [A2, N-didesmethyl-ADP]
Measured parameter: concentration at 0.25 d
Unit info: ng/g
Result: 60
--
Compound: CNc1c(OC)cc(Cc2cnc(N)nc2N)cc1OC [A1, N-monodesmethyl-ADP]
Measured parameter: concentration at 0.25 d
Unit info: ng/g
Result: 200

Asked: Read the entry COc1cc(Cc2cnc(N)nc2N)cc(OC)c1N(C)C [A0] and write its reported concentration at 0.25 d.
Given back: 530

---

// concentration at 3 d lookup, one value per entry
# Procedure text: Concentration and elimination of ADP and its metabolites in liver, kidney, muscle, fat/skin after oral ^3H-ADP for 7 d
# Format: in vivo, carp
# Condition context: carp, muscle, oral, 5 mg/kg b.w.
I only need the number, in ng/g, no unit after it.

Structure smiles string: CNc1c(OC)cc(Cc2cnc(N)nc2N)cc1OC
concentration at 3 d (ng/g): 100

Then there is this compound:
Asked: Read the entry COc1cc(Cc2cnc(N)nc2N)cc(OC)c1N(C)C and write its reported concentration at 3 d.
Given back: 870
